Recorded pIC50 by entry
biological target: Voltage-gated inwardly rectifying potassium channel KCNH2 (Homo sapiens, UniProt Q12809); assay: Inhibition of human ERG (1159 residues) expressed in CHOK1 cells at -80 mV holding potential measured after 5 mins by QPatch electrophysiology method
Sequence (Q12809 whole entry): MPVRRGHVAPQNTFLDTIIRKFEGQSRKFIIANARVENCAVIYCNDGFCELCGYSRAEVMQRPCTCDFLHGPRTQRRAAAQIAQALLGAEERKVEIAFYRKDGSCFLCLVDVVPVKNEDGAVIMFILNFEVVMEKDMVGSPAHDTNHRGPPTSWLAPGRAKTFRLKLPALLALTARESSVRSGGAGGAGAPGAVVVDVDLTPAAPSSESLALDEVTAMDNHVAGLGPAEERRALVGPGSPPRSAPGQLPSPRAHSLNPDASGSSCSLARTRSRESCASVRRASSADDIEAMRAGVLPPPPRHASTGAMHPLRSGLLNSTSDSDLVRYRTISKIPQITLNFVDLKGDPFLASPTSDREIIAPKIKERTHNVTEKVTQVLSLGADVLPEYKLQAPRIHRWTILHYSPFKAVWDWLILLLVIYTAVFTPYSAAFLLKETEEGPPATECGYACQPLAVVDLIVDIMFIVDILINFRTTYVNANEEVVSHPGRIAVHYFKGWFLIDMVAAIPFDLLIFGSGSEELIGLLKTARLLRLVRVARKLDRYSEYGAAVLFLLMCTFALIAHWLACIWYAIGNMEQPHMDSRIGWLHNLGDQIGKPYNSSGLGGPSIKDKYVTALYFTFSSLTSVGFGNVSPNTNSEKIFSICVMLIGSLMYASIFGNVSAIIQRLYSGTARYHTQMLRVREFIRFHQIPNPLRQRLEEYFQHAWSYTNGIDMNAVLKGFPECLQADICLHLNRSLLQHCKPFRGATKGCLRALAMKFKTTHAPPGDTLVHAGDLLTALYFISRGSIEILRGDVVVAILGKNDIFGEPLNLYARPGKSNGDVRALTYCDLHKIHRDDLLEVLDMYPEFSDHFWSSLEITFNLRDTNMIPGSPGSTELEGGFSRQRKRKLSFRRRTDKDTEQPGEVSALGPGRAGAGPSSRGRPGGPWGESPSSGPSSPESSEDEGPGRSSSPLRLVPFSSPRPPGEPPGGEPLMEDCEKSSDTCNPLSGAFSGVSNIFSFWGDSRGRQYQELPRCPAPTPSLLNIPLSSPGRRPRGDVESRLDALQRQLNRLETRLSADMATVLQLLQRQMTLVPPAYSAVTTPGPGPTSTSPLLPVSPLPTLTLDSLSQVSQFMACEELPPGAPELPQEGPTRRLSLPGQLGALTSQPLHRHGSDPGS
pIC50: −log10 of the molar value.

Use the examples below as a reference point.
                              smiles_record  result
0  COc1cc2ncnc(Nc3ccc4scnc4c3)c2cc1S(=O)(=O)C(C)(C)C  < 4.52
1  CC(C)(C)S(=O)(=O)c1cc2c(Nc3ccc4scnc4c3)ncnc2cc1OCCOP(=O)(O)O.[CaH2]  < 4.52

Please give the measured pIC50 for this compound: `CC(C)(C)S(=O)(=O)c1cc2c(Nc3ccc4scnc4c3)ncnc2cc1OCCO`
< 4.52

----------
biological target: Interleukin-1 receptor type 1 (Homo sapiens); test: Inhibition of IL1R in human monocytes assessed as reduction in IL1beta-induced TNFalpha production
Sequence (P14778 whole entry): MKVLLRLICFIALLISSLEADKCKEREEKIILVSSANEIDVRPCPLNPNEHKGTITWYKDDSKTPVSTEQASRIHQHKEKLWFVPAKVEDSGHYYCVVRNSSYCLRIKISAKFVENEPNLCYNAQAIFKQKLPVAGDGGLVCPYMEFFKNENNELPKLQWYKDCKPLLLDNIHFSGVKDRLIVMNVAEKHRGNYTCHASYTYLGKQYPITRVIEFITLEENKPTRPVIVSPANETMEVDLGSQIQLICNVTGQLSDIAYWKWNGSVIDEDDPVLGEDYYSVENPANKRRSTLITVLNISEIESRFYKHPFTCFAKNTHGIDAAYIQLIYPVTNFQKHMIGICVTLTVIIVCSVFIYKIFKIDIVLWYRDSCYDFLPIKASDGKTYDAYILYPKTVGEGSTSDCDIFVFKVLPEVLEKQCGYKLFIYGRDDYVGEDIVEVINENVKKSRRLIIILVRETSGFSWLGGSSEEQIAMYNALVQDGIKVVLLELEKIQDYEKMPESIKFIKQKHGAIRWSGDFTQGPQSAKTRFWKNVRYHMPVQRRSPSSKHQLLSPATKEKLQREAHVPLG
observable: IC50

Please give the measured IC50 for this compound: `CC(C)(C)S(=O)(=O)c1cc2c(Nc3ccc4scnc4c3)ncnc2cc1OCCO`
> 10 µM

----------
test: Half life in rat intestinal S9 fraction; format: ADME, subcellular, Intestine
observable: half-life (min)
Provide only the numeric value, understood in min.

Please give the measured half-life for this compound: `CC(C)(C)S(=O)(=O)c1cc2c(Nc3ccc4scnc4c3)ncnc2cc1OCCOP(=O)(O)O.[CaH2]`
3.3

----------
target: Toll-like receptor 9 (Homo sapiens, UniProt Q9NR96); assay: Inhibition of TLR9 in human monocytes assessed as reduction in CpG-ODN-induced IL8 production
Sequence (Q9NR96 whole entry): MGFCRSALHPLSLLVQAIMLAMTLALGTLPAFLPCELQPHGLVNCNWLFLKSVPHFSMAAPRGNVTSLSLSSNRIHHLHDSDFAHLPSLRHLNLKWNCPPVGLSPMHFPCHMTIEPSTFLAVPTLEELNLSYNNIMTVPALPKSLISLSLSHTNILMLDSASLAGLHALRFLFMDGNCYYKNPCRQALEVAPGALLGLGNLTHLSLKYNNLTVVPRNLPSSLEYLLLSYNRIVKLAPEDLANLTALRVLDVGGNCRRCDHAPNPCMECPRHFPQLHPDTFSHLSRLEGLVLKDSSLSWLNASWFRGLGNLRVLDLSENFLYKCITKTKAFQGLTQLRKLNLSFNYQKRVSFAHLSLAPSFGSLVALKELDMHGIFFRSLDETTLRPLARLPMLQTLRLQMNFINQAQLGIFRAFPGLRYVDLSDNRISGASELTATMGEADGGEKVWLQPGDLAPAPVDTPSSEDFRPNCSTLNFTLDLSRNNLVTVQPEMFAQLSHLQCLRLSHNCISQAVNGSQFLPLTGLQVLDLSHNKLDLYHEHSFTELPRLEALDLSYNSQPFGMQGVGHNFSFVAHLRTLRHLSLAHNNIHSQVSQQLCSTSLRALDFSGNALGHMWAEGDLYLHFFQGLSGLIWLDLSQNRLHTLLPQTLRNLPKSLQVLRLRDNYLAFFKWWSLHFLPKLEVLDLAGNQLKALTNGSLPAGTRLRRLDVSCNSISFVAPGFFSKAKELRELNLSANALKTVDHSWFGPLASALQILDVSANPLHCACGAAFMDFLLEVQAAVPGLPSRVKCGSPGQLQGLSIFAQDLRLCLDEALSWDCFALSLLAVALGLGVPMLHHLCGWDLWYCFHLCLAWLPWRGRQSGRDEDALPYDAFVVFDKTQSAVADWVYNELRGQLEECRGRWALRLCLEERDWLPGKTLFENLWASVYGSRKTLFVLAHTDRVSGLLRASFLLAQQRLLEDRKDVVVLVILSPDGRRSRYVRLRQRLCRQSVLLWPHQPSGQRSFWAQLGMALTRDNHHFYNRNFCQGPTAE
observable: IC50

# value lookup — system Toll-like receptor 9 (Homo sapiens, UniProt Q9NR96), readout IC50, item `CC(C)(C)S(=O)(=O)c1cc2c(Nc3ccc4scnc4c3)ncnc2cc1OCCO`
> 10 µM

----------
test: AUC in Beagle dog at 2 mg/kg, po by LC/MS/MS analysis; assay type: ADME, organism-based, Canis lupus familiaris; conditions: in vivo
observable: AUC (ng·h/mL)
Provide only the numeric value, understood in ng·h/mL.

Please give the measured AUC for this compound: `CC(C)(C)S(=O)(=O)c1cc2c(Nc3ccc4scnc4c3)ncnc2cc1OCCO`
1800

----------
molecular target: Toll-like receptor 7 (Homo sapiens, UniProt Q9NYK1); experiment: Inhibition of TLR7 in human monocytes assessed as reduction in gardiquimod-induced IL8 production
observable: IC50

Please give the measured IC50 for this molecule: `CC(C)(C)S(=O)(=O)c1cc2c(Nc3ccc4scnc4c3)ncnc2cc1OCCO`
> 10 µM

----------
assay: Cmax in Sprague-Dawley rat at 200 mg/kg, po using crystalline sample during 7 day dose ranging study by LC/MS/MS analysis; type: ADME, organism-based; design: dose 200 mg/kg, route oral; details: in vivo
observable: Cmax (ng/mL)
Provide only the numeric value, understood in ng/mL.

Please give the measured Cmax for this compound: `CC(C)(C)S(=O)(=O)c1cc2c(Nc3ccc4scnc4c3)ncnc2cc1OCCO`
4900

----------
test: AUC in Sprague-Dawley rat at 20 mg/kg, po using crystalline sample during 7 day dose ranging study by LC/MS/MS analysis; format: ADME, organism-based; settings: in vivo
observable: AUC at 168 h

Please give the measured AUC at 168 h for this molecule: `CC(C)(C)S(=O)(=O)c1cc2c(Nc3ccc4scnc4c3)ncnc2cc1OCCO`
8800 ng·h/mL

----------
assay: Unbound fraction in dog blood; type: ADME, tissue-based, Canis lupus familiaris
observable: fraction unbound

Please give the measured fraction unbound for this compound: `CC(C)(C)S(=O)(=O)c1cc2c(Nc3ccc4scnc4c3)ncnc2cc1OCCO`
0.089

----------
experiment: Oral bioavailability in Sprague-Dawley rat at 2 mg/kg by LC/MS/MS analysis; format: ADME, organism-based; settings: in vivo
observable: bioavailability
Remember to follow the number with its unit.

Please give the measured bioavailability for this molecule: `CC(C)(C)S(=O)(=O)c1cc2c(Nc3ccc4scnc4c3)ncnc2cc1OCCO`
39%

----------
Recorded solubility at 4 h by entry
test: Solubility of the compound in FaSSIF measured after 4 hrs; type: physicochemical
Provide only the numeric value, understood in µg/mL.

Use the examples below as a reference point.
>>> df
                              smiles_record  quantitative_readout
0  CN(C)C(=O)OCCOc1cc2ncnc(Nc3ccc4scnc4c3)c2cc1S(=O)(=O)C(C)(C)C                    12
1  CC(C)[C@H](N)C(=O)OCCOc1cc2ncnc(Nc3ccc4scnc4c3)c2cc1S(=O)(=O)C(C)(C)C.Cl.Cl                   690
2  CC(C)(C)S(=O)(=O)c1cc2c(Nc3ccc4scnc4c3)ncnc2cc1OCCO                     4

From here, focus on the item given below.
Please give the measured solubility at 4 h for this molecule: `CC(C)(C)S(=O)(=O)c1cc2c(Nc3ccc4scnc4c3)ncnc2cc1OCCOS(=O)(=O)[O-].[Na+]`
2460

----------
assay: Oral bioavailability in Beagle dog at 2 mg/kg by LC/MS/MS analysis; assay type: ADME, organism-based, Canis lupus familiaris; conditions: in vivo
observable: bioavailability (%)
Provide only the numeric value, understood in %.

Please give the measured bioavailability for this compound: `CC(C)(C)S(=O)(=O)c1cc2c(Nc3ccc4scnc4c3)ncnc2cc1OCCO`
57

----------
test: Volume of distribution at steady state in Sprague-Dawley rat at 2 mg/kg, po or 0.5 mg/kg, iv by LC/MS/MS analysis; assay type: ADME, organism-based; details: in vivo, read-out: Vdss
observable: Vd (L/kg)
Provide only the numeric value, understood in L/kg.

Please give the measured Vd for this compound: `CC(C)(C)S(=O)(=O)c1cc2c(Nc3ccc4scnc4c3)ncnc2cc1OCCO`
4.1

----------
assay: Cmax in Beagle dog at 2 mg/kg, po by LC/MS/MS analysis; assay type: ADME, organism-based, Canis lupus familiaris; design: dose 2 mg/kg, route oral; settings: in vivo
observable: Cmax (ng/mL)
Provide only the numeric value, understood in ng/mL.

Please give the measured Cmax for this compound: `CC(C)(C)S(=O)(=O)c1cc2c(Nc3ccc4scnc4c3)ncnc2cc1OCCO`
470

----------
target: Receptor-interacting serine/threonine-protein kinase 2 (Homo sapiens); test: Inhibition of RIPK2 in human whole blood assessed as reduction in MDP-induced TNFalpha production preincubated for 30 mins followed by MDP-stimulation and measured after 6 hrs by immunoassay; format: tissue-based
Sequence (O43353 whole entry): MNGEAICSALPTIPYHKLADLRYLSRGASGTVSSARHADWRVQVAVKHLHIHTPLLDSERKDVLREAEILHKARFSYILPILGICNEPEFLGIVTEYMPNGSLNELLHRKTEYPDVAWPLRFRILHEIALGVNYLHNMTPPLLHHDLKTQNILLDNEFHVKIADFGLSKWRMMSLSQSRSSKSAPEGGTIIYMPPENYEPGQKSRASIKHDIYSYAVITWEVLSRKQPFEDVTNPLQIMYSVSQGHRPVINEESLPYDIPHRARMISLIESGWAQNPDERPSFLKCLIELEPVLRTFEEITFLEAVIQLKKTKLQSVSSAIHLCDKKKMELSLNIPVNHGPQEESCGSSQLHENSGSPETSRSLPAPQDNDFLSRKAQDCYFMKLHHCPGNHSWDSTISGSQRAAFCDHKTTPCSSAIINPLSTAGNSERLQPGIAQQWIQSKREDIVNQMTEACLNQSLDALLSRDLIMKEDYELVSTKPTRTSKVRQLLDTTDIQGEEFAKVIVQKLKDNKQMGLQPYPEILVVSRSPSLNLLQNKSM
Recorded pIC50 by entry
When answering, recall that pIC50 equals minus log10 of the concentration in mol/L, and write that number alone.

In [3]: df
Out[3]:
                              smiles_record  observable  quantitative_readout
0  COc1cc2ncnc(Nc3ccc4scnc4c3)c2cc1S(=O)(=O)C(C)(C)C       pIC50                  6.43

From here, focus on the item given below.
# value lookup — system Receptor-interacting serine/threonine-protein kinase 2 (Homo sapiens), readout pIC50, item `CC(C)(C)S(=O)(=O)c1cc2c(Nc3ccc4scnc4c3)ncnc2cc1OCCO`
7.59

----------
assay: Unbound fraction in minipig blood; type: ADME, tissue-based, Sus scrofa; details: pig
observable: fraction unbound
Would you mind answering with just the numeric figure?

Please give the measured fraction unbound for this compound: `CC(C)(C)S(=O)(=O)c1cc2c(Nc3ccc4scnc4c3)ncnc2cc1OCCO`
0.068

----------
assay: Half life in dog intestinal S9 fraction; format: ADME, subcellular, Canis lupus familiaris, Intestine
observable: half-life
Remember to follow the number with its unit.

Please give the measured half-life for this molecule: `CC(C)(C)S(=O)(=O)c1cc2c(Nc3ccc4scnc4c3)ncnc2cc1OCCOP(=O)(O)O.[CaH2]`
8 min

----------
assay: Cmax in Sprague-Dawley rat at 20 mg/kg, po using crystalline sample during 7 day dose ranging study by LC/MS/MS analysis; assay type: ADME, organism-based; parameters: dose 20 mg/kg, route oral; conditions: in vivo
observable: Cmax (ng/mL)
Provide only the numeric value, understood in ng/mL.

Please give the measured Cmax for this molecule: `CC(C)(C)S(=O)(=O)c1cc2c(Nc3ccc4scnc4c3)ncnc2cc1OCCO`
900

----------
biological target: Nucleotide-binding oligomerization domain-containing protein 2 (Homo sapiens); assay: Inhibition of human NOD2 expressed in HEK293 cells assessed as reduction in MDP-induced IL8 production measured after 22 hrs by HTRF fluorescence assay
Sequence (Q9HC29 whole entry, the tested form may be a part): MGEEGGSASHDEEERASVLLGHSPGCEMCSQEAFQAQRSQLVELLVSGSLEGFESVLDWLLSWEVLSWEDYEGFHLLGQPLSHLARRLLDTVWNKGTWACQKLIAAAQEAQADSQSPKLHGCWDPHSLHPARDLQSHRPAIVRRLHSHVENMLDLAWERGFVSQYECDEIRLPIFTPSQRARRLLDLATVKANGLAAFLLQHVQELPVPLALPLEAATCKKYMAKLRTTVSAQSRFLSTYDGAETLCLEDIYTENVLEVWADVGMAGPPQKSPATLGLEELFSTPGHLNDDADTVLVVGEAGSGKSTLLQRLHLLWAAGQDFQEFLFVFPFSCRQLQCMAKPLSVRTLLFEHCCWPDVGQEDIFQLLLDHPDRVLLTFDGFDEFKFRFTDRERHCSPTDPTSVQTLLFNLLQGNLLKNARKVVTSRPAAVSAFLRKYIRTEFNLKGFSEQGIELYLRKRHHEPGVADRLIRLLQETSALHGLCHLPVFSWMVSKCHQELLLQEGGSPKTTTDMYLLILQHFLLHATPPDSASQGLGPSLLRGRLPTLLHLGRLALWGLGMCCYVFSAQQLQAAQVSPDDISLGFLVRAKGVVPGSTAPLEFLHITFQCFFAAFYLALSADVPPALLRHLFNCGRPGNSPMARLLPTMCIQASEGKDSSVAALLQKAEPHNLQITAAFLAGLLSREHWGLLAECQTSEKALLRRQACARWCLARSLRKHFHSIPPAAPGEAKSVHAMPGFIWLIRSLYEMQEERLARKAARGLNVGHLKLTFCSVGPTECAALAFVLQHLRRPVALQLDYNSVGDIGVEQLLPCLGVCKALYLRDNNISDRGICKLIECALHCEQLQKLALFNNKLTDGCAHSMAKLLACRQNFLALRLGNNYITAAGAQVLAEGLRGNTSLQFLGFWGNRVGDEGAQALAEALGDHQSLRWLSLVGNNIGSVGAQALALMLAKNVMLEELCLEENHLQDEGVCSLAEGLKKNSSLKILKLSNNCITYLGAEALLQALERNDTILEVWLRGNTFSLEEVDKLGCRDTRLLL
observable: IC50 (nM)
Provide only the numeric value, understood in nM.

Please give the measured IC50 for this compound: `CC(C)(C)S(=O)(=O)c1cc2c(Nc3ccc4scnc4c3)ncnc2cc1OCCO`
4

----------
assay: AUC in Sprague-Dawley rat assessed as 2-((4-(Benzo[d]thiazol-5-ylamino)-6-(tert-butylsulfonyl)quinazolin-7-yl)oxy)ethanol level at 2 mg/kg, po by LC/MS/MS analysis; format: ADME, organism-based; conditions: in vivo
Recorded AUC by entry
Provide only the numeric value, understood in ng·h/mL.

>>> print(df.to_string())
                              smiles_record  observable  measurement_units  quantitative_readout
0  CN(C)C(=O)OCCOc1cc2ncnc(Nc3ccc4scnc4c3)c2cc1S(=O)(=O)C(C)(C)C         AUC            ng·h/mL                    10

Please give the measured AUC for this molecule: `CC(C)(C)S(=O)(=O)c1cc2c(Nc3ccc4scnc4c3)ncnc2cc1OCCO`
460

Please give the measured AUC for this molecule: `CC(C)(C)S(=O)(=O)c1cc2c(Nc3ccc4scnc4c3)ncnc2cc1OCCOP(=O)(O)O.[CaH2]`
580

Please give the measured AUC for this molecule: `CC(C)[C@H](N)C(=O)OCCOc1cc2ncnc(Nc3ccc4scnc4c3)c2cc1S(=O)(=O)C(C)(C)C`
730
